B1: SFRS1 (parent)
chain: RDIDLKNRRGGPPFAFVEFEDPRD

variants of: B1; assay: protein stability index of a GFP-peptide fusion (GPS, HEK-293T) (PSI 1-6); higher = more stable; details: c terminus: a fixed tail appended;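 note: lentivirally expressed fusions sorted by FACS into six bins by GFP to DsRed ratio, PSI derived from sequencing read proportions per bin multiplied by bin number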
Kindly return rule met if reported protein stability index is no lower than 4; return rule not met if it is lower.

[[record]]
variant_name = "N7C"
classification = "rule not met"

[[record]]
variant_name = "E18S"
classification = "rule not met"

[[record]]
variant_name = "G11K"
classification = "rule not met"

[[record]]
variant_name = "P12N"
classification = "rule met"

[[record]]
variant_name = "F19I"
classification = "rule not met"

[[record]]
variant_name = "E18Y"
classification = "rule not met"

[[record]]
variant_name = "E20C"
classification = "rule not met"

[[record]]
variant_name = "G11I"
classification = "rule not met"

[[record]]
variant_name = "L5H"
classification = "rule not met"

[[record]]
variant_name = "N7P"
classification = "rule not met"

[[record]]
variant_name = "K6I"
classification = "rule not met"

[[record]]
variant_name = "F14C"
classification = "rule met"

[[record]]
variant_name = "D24R"
classification = "rule not met"

[[record]]
variant_name = "R9V"
classification = "rule met"

[[record]]
variant_name = "F19M"
classification = "rule not met"

[[record]]
variant_name = "F19E"
classification = "rule met"

[[record]]
variant_name = "R23P"
classification = "rule met"

